# System: HIV-1 RT Y181C (Human immunodeficiency virus type 1 group M subtype B, UniProt P03366, Y780C)
# Construct: an HIV RT clone pKRT2 containing only the RT p66 gene regulated by the lac operon/trc promoter
# Test details: Reverse transcriptase (RT) assay, Y181C mutant
Property: IC50 (nM)
Number in nM, nothing else.

Please review the entries below; each comes with its answer.
# Compound smiles, Property, Value measured
records = [
    ("CCN1c2ncc(CCOc3cc[n+]([O-])c4ccccc34)cc2C(=O)N(C)c2ccc(Cl)nc21", "IC50", 29),
    ("CCN1c2ncc(CCOc3cccc4c3ccc[n+]4[O-])cc2C(=O)N(C)c2ccc(F)nc21", "IC50", 41),
    ("Cc1ccnc2c1NC(=O)c1cc(CCOc3cc[n+]([O-])c4ccccc34)cnc1N2C1CC1", "IC50", 226),
]

Ask: Entry CCN1c2ncc(CCOc3ccnc4ccccc34)cc2C(=O)Nc2c(C)cc(Cl)nc21 has what IC50?
Reply: 20

Ask: What measured IC50 goes with CCN1c2ncc(CCOc3ccnc4ccccc34)cc2C(=O)N(C)c2ccc(Cl)nc21 ?
Reply: 25

Ask: Given CCN1c2ncc(CCOc3cc[n+]([O-])c4ccccc34)cc2C(=O)Nc2c(C)ccnc21 , state its recorded IC50.
Reply: 38

Ask: Requested read-out: IC50. Entry: Cc1ccnc2c1NC(=O)c1cc(CCOc3ccnc4ccccc34)cnc1N2C1CC1
Reply: 73

Ask: // lookup IC50 for CCN1c2ncc(CCOc3ccnc4ccccc34)cc2C(=O)N(C)c2ccc(F)nc21
Reply: 26
